Assign In Vivo BRh 3 mg·kg 8 h (remaining FAAH activity, % of control) to each entry below.
# TEST TARGET: FAAH (Mus musculus, UniProt O08914)
# Construct: A fragment of liver, left lung lobe and brain without cerebellum were removed; from tissue; host or cells: male NMRI mice; brain (without cerebellum) and liver homogenates
# Sequence (O08914 whole entry, the tested form may be a part): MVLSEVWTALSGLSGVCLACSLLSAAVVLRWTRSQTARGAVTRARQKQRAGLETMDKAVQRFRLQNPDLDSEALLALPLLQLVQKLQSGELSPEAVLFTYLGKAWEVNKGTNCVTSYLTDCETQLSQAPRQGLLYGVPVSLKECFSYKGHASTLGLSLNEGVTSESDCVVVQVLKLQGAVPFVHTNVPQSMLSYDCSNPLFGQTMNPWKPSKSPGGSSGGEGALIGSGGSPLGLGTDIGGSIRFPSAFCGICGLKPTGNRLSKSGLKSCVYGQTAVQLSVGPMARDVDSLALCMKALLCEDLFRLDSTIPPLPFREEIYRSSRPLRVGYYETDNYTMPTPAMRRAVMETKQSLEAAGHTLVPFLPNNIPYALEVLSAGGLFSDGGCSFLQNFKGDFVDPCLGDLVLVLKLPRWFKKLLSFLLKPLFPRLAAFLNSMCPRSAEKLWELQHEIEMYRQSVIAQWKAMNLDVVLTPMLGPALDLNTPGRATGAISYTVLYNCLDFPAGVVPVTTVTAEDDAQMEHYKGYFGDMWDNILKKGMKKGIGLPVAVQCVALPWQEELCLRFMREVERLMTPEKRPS
# TEST SUMMARY: In vivo FAAH inhibition after oral dosing, remaining activity in brain homogenate (BRh, central nervous tissue)
# Set-up: species or system NMRI mice
# PROTOCOL CONDITIONS: brain homogenate, 3 mg/kg, 8 h after dosing; low value = strong inhibitor
Structures can show the parent of a compound that is named as a salt.

Print FAAH (Mus musculus, UniProt O08914) In Vivo BRh 3 mg·kg 8 h (remaining FAAH activity, % of control) for CN(C(=O)n1cnc(-c2ccc(O)cc2)c1)C1CCN(Cc2ccccc2)CC1 [Compound no. 451, hydrobromide] .
1.1 % of control

Print FAAH (Mus musculus, UniProt O08914) In Vivo BRh 3 mg·kg 8 h (remaining FAAH activity, % of control) for "CN(C(=O)n1cnc(-c2cc3ccccc3o2)c1)C1CCCCC1" .
9.9 % of control

Print FAAH (Mus musculus, UniProt O08914) In Vivo BRh 3 mg·kg 8 h (remaining FAAH activity, % of control) for "CN(C(=O)n1cnc(-c2ccc(S(C)(=O)=O)cc2)c1)C1CCCCC1" .
1.7 % of control

Print FAAH (Mus musculus, UniProt O08914) In Vivo BRh 3 mg·kg 8 h (remaining FAAH activity, % of control) for "Cc1nc(-c2ccccc2)nn1C(=O)N1COCC1(C)C" .
104 % of control

Print FAAH (Mus musculus, UniProt O08914) In Vivo BRh 3 mg·kg 8 h (remaining FAAH activity, % of control) for "CC1(C)COCN1C(=O)n1nnc2cc(C(=O)NO)ccc21" .
23.2 % of control

Print FAAH (Mus musculus, UniProt O08914) In Vivo BRh 3 mg·kg 8 h (remaining FAAH activity, % of control) for "COc1ccc2nnn(C(=O)N3COCC3(C)C)c2c1" .
3.5 % of control

Print FAAH (Mus musculus, UniProt O08914) In Vivo BRh 3 mg·kg 8 h (remaining FAAH activity, % of control) for "COc1ccc(-c2cn(C(=O)N(C)C3CCNCC3)cn2)cc1N" .
114.2 % of control

Print FAAH (Mus musculus, UniProt O08914) In Vivo BRh 3 mg·kg 8 h (remaining FAAH activity, % of control) for "CN(C(=O)n1cnc(-c2cccc(-c3ccccc3)c2)c1)C12CC3CC(CC(C3)C1)C2" .
115 % of control

Print FAAH (Mus musculus, UniProt O08914) In Vivo BRh 3 mg·kg 8 h (remaining FAAH activity, % of control) for "COc1ccc(-c2cn(C(=O)N3COCC3(C)C)cn2)cc1N" .
6.5 % of control
